System: Fibroblast
protocol-details: Multiplex assay against human fibroblast
Type: toxicity, cell-based
condition: 24 h, 10 µM, compound concentration 10 uM, replicate 2
Measured Population Normal (%) by item
The response must be a number in % with no trailing unit.

Consider the worked cases shown below.
- compound: "C[C@H](N)COC(=O)[C@@H](CCCCN)NC(=O)Cc1c(-c2ccc3ccccc3c2)[nH]c2c1ccc1ccccc12"
  system-under-test: "Fibroblast"
  Population Normal (%): 93
- compound: "CCCCC1=NC2(CCCC2)C(=O)N1Cc1ccc(-c2ccccc2-c2nnn[nH]2)cc1 [IRBESARTAN]"
  system-under-test: "Fibroblast"
  Population Normal (%): 97
- compound: "CN[C@@H](C)C(=O)N[C@H](C(=O)N1CCC[C@H]1C(=O)Nc1snnc1-c1ccccc1)C1CCCCC1 [GDC-0152]"
  system-under-test: "Fibroblast"
  Population Normal (%): 91
- compound: "Cc1cccc(NC(=O)CN2CCC(c3ccccn3)CC2)c1.Cl.Cl"
  system-under-test: "Fibroblast"
  Population Normal (%): 100
- compound: "Cl.N=C(N)NC(=O)Cc1c(Cl)cccc1Cl [GUANFACINE HYDROCHLORIDE]"
  system-under-test: "Fibroblast"
  Population Normal (%): 95
- compound: "Cc1onc(-c2ccccc2Cl)c1C(=O)N(C)c1ccc(Cl)cc1"
  system-under-test: "Fibroblast"
  Population Normal (%): 95
- compound: "Cc1c(CC(=O)O)c2cccnc2n1Cc1ccc(S(C)(=O)=O)cc1C(F)(F)F [FEVIPIPRANT]"
  system-under-test: "Fibroblast"
  Population Normal (%): 92

Moving on to the next compound.
Data point: `NCCc1cn(S(=O)(=O)c2c(Cl)nc3sccn23)c2ccccc12.O=C(O)C(=O)O` ; Population Normal (%) = 92

###

System: Fibroblast
protocol-details: Multiplex assay against human fibroblast
Type: toxicity, cell-based
condition: 24 h, 10 µM, compound concentration 10 uM, replicate 2
Entries and their Population Membrane Permeable-Phenotype (%) values follow.
# output: bare number, implied unit %

- compound: "Cl.N=C(N)NC(=O)Cc1c(Cl)cccc1Cl [GUANFACINE HYDROCHLORIDE]"
  measurement-unit: "%"
  result-value: 13
- compound: "Cc1sc2c(c1C)C(c1ccc(Cl)cc1)=N[C@@H](CC(=O)NCCCCCCCCNC(=O)COc1cccc3c1C(=O)N(C1CCC(=O)NC1=O)C3=O)c1nnc(C)n1-2 (some centres undefined)"
  measurement-unit: "%"
  result-value: 17
- compound: "CC[C@@H](C)Nc1nc(C)nc2c(-c3ccc(OC)nc3C)c(C)nn12 [PEXACERFONT]"
  measurement-unit: "%"
  result-value: 20

Reported Population Membrane Permeable-Phenotype (%) for CC(C)COc1ccc(CNC(=O)N(Cc2ccc(F)cc2)C2CCN(C)CC2)cc1 [PIMAVANSERIN] was 3

So, `O=C1[C@H](Cc2ccc(O)cc2)N2C(=O)CCN(C(=O)NCc3ccccc3)[C@H]2CN1Cc1cccc2ccccc12` ? Its Population Membrane Permeable-Phenotype (%) was 13

Population Membrane Permeable-Phenotype (%) for `N#Cc1c(Oc2cccc(OS(=O)(=O)CCCC(F)(F)F)c2)cccc1C(F)(F)F` is 18

Quick note, Population Membrane Permeable-Phenotype (%) for CN[C@@H](C)C(=O)N[C@H](C(=O)N1CCC[C@H]1C(=O)Nc1snnc1-c1ccccc1)C1CCCCC1 [GDC-0152] landed at 16

The compound listed as CC(C)c1noc(N2CCC(COc3ccc(-c4ccc(S(C)(=O)=O)cc4)nc3)CC2)n1 [GSK-1292263] has a reported Population Membrane Permeable-Phenotype (%) of 10

So, `CCCCC(=O)N(Cc1ccc(-c2ccccc2-c2nnn[nH]2)cc1)[C@H](C(=O)O)C(C)C` ? Its Population Membrane Permeable-Phenotype (%) was 9

Consider Br.CS(=O)(=O)Nc1c(O)ccc2c1CCCC2C1=NCCN1 (centres undefined) . Its measured Population Membrane Permeable-Phenotype (%) is 10

Noted for `CCCOc1ccc2[nH]cc(C3=CCNCC3)c2n1.Cl` : its Population Membrane Permeable-Phenotype (%) reads 4

Input `C[C@H](N)COC(=O)[C@@H](CCCCN)NC(=O)Cc1c(-c2ccc3ccccc3c2)[nH]c2c1ccc1ccccc12` . Output Population Membrane Permeable-Phenotype (%): 5

Per the record, `CN1CCN(c2cc(-c3ccccc3)nc(N)n2)CC1` has Population Membrane Permeable-Phenotype (%) of 4

Per the records, this compound ( `Cc1onc(-c2ccccc2Cl)c1C(=O)N(C)c1ccc(Cl)cc1` ) has Population Membrane Permeable-Phenotype (%) equal to 6

According to the records, this compound `NCCc1cn(S(=O)(=O)c2c(Cl)nc3sccn23)c2ccccc12.O=C(O)C(=O)O` displays Population Membrane Permeable-Phenotype (%) of 5

Cc1c(CC(=O)O)c2cccnc2n1Cc1ccc(S(C)(=O)=O)cc1C(F)(F)F [FEVIPIPRANT] yielded Population Membrane Permeable-Phenotype (%) of 5

Entry `N#Cc1cc(F)cc(-c2nc(-c3ccc(F)cn3)no2)c1` — recorded Population Membrane Permeable-Phenotype (%) = 5

Noted for `Cc1cccc(NC(=O)CN2CCC(c3ccccn3)CC2)c1.Cl.Cl` : its Population Membrane Permeable-Phenotype (%) reads 11

Record summary for `CCc1cc2cc(NS(=O)(=O)c3ccc(C#N)cc3)ccc2n(CC)c1=O` : reported Population Membrane Permeable-Phenotype (%) = 6
